Reported cell viability is given for each of the following compounds.
System: SEM cells
Protocol: cell viability relative to DMSO control; higher = less cytotoxic
Settings: HPLM + 10% dialyzed FBS; 48 h; 0.00702 µM
Quick note: give the figure in %, leave out the unit.

Examples with their reported cell viability follow.
CCOC(=O)c1ccc(OC(=O)CCCCCNC(=N)N)cc1 = 117
O=C1NC(=O)/C(=C/c2ccc3nccc(-c4ccncc4)c3c2)S1 = 105
Cc1onc(-c2ccccc2Cl)c1C(=O)N[C@@H]1C(=O)N2[C@@H]1SC(C)(C)[C@@H]2C(=O)[O-] = 89.4
CC(=O)O[C@@]1(CC[C@H]2[C@@H]3\C=C(Cl)/C4=C/C(=O)[C@@H]5C[C@@H]5[C@]4(C)[C@H]3CC[C@]12C)C(C)=O = 126
O=C1c2ccccc2-[n+]2ccc3c([nH]c4ccccc43)c21 = 102

Input line: What reported cell viability corresponds to C/C=C/C/C=C/CCC(=O)[C@H]1O[C@H]1C(N)=O on SEM cells?
Output line: 118

Input line: What about CC(C)CNc1ccnc(NCc2csc(-c3ccccc3)n2)n1 ?
Output line: 104

Input line: Do the same for CC1=C(C)C(=O)C(C(CCCCCC(=O)O)c2ccccc2)=C(C)C1=O (stereo not drawn) please
Output line: 56.2

Input line: What would you report for CC(C)c1ccc2c(c1)c(SC(C)(C)C)c(CC(C)(C)C(=O)[O-])n2Cc1ccc(Cl)cc1 ?
Output line: 107
